Source listed as patent US12590062B2.

Target: PD-1/PD-L1 (Homo sapiens, UniProt Q9NZQ7)
Sequence (Q9NZQ7 19-238 limits assumed): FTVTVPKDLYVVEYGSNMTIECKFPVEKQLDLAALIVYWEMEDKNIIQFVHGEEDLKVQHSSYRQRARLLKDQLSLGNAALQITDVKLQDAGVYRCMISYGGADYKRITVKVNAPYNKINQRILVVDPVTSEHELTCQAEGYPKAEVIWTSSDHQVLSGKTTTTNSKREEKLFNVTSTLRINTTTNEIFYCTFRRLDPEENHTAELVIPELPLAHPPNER
Assay: PD-1/PD-L1 biochemical protein-protein interaction assay (ALPHA)
Conditions: 0.3 nM His tagged PD-L1, 2.5 nM biotinylated Fc-PD-1, 60 minutes at 25° C., read-out: IC50 PD-L1-PD-1 Alpha IC50-mono PD-L1-fcP-D1
test readout: IC50 (nM)

{"columns": ["compound", "experimental value"],
 "data": [
  ["N#Cc1cncc(COc2nc(OCc3cccc(-c4cccc(-c5ccc6c(c5)C[C@@H](N)C6)c4Cl)c3Cl)c(Br)cc2CNC[C@@H](O)CC(=O)O)c1 [Example 552]", 0.716],
  ["COc1nc(OCc2cccc(-c3cccc(COc4nc(OC)c(CNC[C@@H](O)CC(=O)O)cc4C)c3C)c2C)c(C)cc1CNC[C@@H](O)CC(=O)O [Example 119]", 0.8],
  ["Cc1c(COc2cc(OCc3cncc(C#N)c3)c(CNCc3nnn[nH]3)cc2Cl)cccc1-c1cccc(COc2cc(OCc3cncc(C#N)c3)c(CNCc3nnn[nH]3)cc2Cl)c1C [Example 163]", 0.6],
  ["Cc1c(COc2cc(OCc3cncc(C#N)c3)c(CNC[C@@H](O)CC(=O)O)cc2Cl)cccc1-c1cccc(-c2ccc(N3CCNCC3)cc2)c1C [Example 339]", 1.3]
]}
